// reported IC50 for each item listed
Test system: IMR-90 (non-malignant lung fibroblasts)
ASSAY PROTOCOL: MTT antiproliferative assay in IMR-90 cells
Assay type: cell-based
MEASUREMENT CONDITIONS: Homo sapiens, 72 hrs treatment, read-out: MTT Antiproliferative Activity - IC50 (μM) IMR0 (non-malignant lung fibroblasts)
Kindly answer with a numeric value in µM, unit omitted.

Consider the reported IC50 for these compounds:
compound="CCCCCC(C#CC(F)(F)Br)OC1CCCCO1 (centres unmarked)" target_or_system="IMR-90 (non-malignant lung fibroblasts)" uom=µM observed_result=3.7
compound="CCCCCCCC(O)C#CC(F)(F)Br (centres unmarked)" target_or_system="IMR-90 (non-malignant lung fibroblasts)" uom=µM observed_result=2.7
compound=CCCCC[C@@H](O)C#CC(F)(F)Br target_or_system="IMR-90 (non-malignant lung fibroblasts)" uom=µM observed_result=1.5
compound="OC(C#CC(F)(F)Br)CCc1ccccc1 (centres unmarked)" target_or_system="IMR-90 (non-malignant lung fibroblasts)" uom=µM observed_result=2.8
compound="CCCCCC(O)C#CCBr (centres unmarked)" target_or_system="IMR-90 (non-malignant lung fibroblasts)" uom=µM observed_result=8.7

stdin: What IC50 value was documented for this compound, CCCCCC(C#CC(F)(F)Br)OC(C)=O (centres unmarked) ?
stdout: 5.4
